Catalogue of compounds with associated IC50
ASSAYED_SYSTEM: Recombinant full-length human IDO1 (Homo sapiens, UniProt P14902)
Construct: Recombinant full-length human IDO1 with a N-terminal hexahistidine tag; hexahistidine (His6) (N); made in house; host or cells: E. coli
Sequence (P14902 whole entry): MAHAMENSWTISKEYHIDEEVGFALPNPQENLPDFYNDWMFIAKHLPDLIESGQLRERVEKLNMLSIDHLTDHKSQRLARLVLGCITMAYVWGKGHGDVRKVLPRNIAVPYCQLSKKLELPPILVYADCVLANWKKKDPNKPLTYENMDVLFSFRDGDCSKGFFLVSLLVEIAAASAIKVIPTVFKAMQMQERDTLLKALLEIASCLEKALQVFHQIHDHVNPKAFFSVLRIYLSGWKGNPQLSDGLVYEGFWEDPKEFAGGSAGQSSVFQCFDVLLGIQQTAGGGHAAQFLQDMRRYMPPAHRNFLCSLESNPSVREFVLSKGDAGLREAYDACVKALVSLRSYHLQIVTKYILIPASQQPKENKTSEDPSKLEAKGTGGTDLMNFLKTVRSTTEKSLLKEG
PROTOCOL_TEXT: IDO1 enzymatic assay (NFK quantified by LCMS)
Assay type: biochemical
CONDITION_DESCRIPTION: 2 nM enzyme, 5 μM L-tryptophan, pH6.5, 30 minutes pre-incubation at RT; mean values when measured multiple times; read-out: hIDO activity (IC50 in nM)
QUANTITY_MEASURED: IC50 (nM)

>>> result_number("OC(c1cn(-c2ccc(OCC(F)(F)F)nc2)nn1)c1c(C2CC2)sc2cncn12 (racemic) [Example 78]")
17.4
>>> result_number("CCOc1ccc(-n2cc(C(O)c3c(C4CC4)sc4cncn34)nn2)cn1 (racemic) [Example 42]")
20.2
>>> result_number("OC(c1cn(-c2ccccc2)nn1)c1c(C(F)(F)F)sc2cncn12 (racemic) [Example 133]")
24.2
>>> result_number("Cc1cc(O)ccc1-n1cc(C(O)c2c(C3CC3)sc3cncn23)nn1 (racemic) [Example 207]")
26.9
>>> result_number("COC(=O)Nc1ccc(-n2cc(C(O)c3c(C4CC4)sc4cncn34)cn2)cc1 (racemic) [Example 132]")
18.2
>>> result_number("CCc1sc2cncn2c1C(O)c1cn(-c2cncc3ccccc23)nn1 (racemic) [Example 52]")
41.8
>>> result_number("COc1ccc(-n2cc(C(O)c3c(C4CC4)sc4cncn34)nn2)cc1C#N (racemic) [Example 135]")
14
>>> result_number("O=c1[nH]c2ccc(-n3cc(C(O)c4c(C5CC5)sc5cncn45)nn3)cc2[nH]1 (racemic) [Example 194]")
70.4

The reported measurements were obtained from patent US20200405696A1.
